Let's look at some molecules and their measured SEC-HPLC, % monomer.
experiment: SEC-HPLC % monomer; type: physicochemical; conditions: optimized antibodies

molecule	SEC-HPLC, % monomer
ADI-71739: anti-IL18-BP antibody, sequences in FIG. 2K; 66716 lineage (antibody, V domains shown) VH: QLQLQESGPGLVKPSETLSLTCTVSGGSISSPDYPWGWIRQPPGKGLEWIGSIYYQGATYYNPSLKSRVTISVDTSKNQFSLKLSSVTAADTAVYYCARGPYRQLFDYWGQGTLVTVSS VL: DIQMTQSPSSVSASVGDRVTITCRASQGISSWLAWYQQKPGKAPKLLIYAASSLQSGVPSRFSGSGSGTDFTLTISSLQPEDFATYYCQQGSVFPYTFGGGTKVEIK	94.9%
ADI-71719: anti-IL18-BP antibody, sequences in FIG. 2B; 66670 lineage (antibody, V domains shown) VH: QVQLVQSGAEVKKPGSSVKVSCKASGGTFNSYVISWVRQAPGQGLEWMGGIIPGAGTANYAQKFQGRVTITADESTSTAYMELSSLRSEDTAVYYCARGRHSHETWGQGTLVTVSS VL: DIQMTQSPSSVSASVGDRVTITCRASQGISSWLAWYQQKPGKAPKLLIYAASSLQSGVPSRFSGSGSGTDFTLTISSLQPEDFATYYCQQVYSLPWTFGGGTKVEIK	94.5%
ADI-71755: anti-IL18-BP antibody, sequences in FIG. 2T (antibody, V domains shown) VH: QLQLQESGPGLVKPSETLSLTCTVSGGSISSPDYPWGWIRQPPGKGLEWIGSIFYSGNTYYNPSLKSRVTISVDTSKNQFSLKLSSVTAADTAVYYCARGPFRQVFDYWGQGTLVTVSS VL: DIQMTQSPSSVSASVGDRVTITCRASQGISSWLAWYQQKPGKAPKLLIYAASSLQSGVPSRFSGSGSGTDFTLTISSLQPEDFATYYCQQGWSFPYTFGGGTKVEIK	92.9%

Origin of the recorded values: patent US20240425607A1
